Data origin: PubChem BioAssay AID1259417

Item-by-item account of inhibition
test: M. tuberculosis growth inhibition, HTS (AID 1259417);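 also: bacteria grown with compound for 5 days at 37 °C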
conditions: M. tuberculosis growth inhibition; stronger effect = higher value; concentration not given here
Hit rate of the full screen: of about 1,100 compounds, about 760 (69%) were called active. So high a share suggests a set chosen from earlier hits. The list shows a part of the results.
Entry rule: numbers only, all in %.

q: Form field: reported inhibition of O=C(Nc1nnc(-c2ccc3c(c2)CCCC3)o1)c1ccco1
a: 22.5

q: Form field: reported inhibition of Cc1nn(-c2nc3ccccc3[nH]2)c(N)c1-c1ccccc1
a: 84.2

====

test: M. tuberculosis growth inhibition, HTS (AID 1259417);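 also: bacteria grown with compound for 5 days at 37 °C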
conditions: M. tuberculosis growth inhibition; stronger effect = higher value; concentration not given here
Among all 1,100 compounds or so, about 760 (69%) were called active. The set was probably picked from earlier hits. Some of the results follow.
Item-by-item account of inhibition

> print(dat)
                               molecule  measured.value
1    Cc1cccc(OCCCn2cnc3cc(C)c(C)cc32)c1           97.5%
2                    Nc1ccccc1Nc1ccccc1           98.4%
3  COc1ccc(Nc2cc(C)nc3c2ccc2ccccc23)cc1           19.5%

q: Form field: reported inhibition of COC(=O)C(CC(C)C)NC(=O)/C=C/c1ccccc1Cl (stereo unspecified)
a: 28.6%

q: Form field: reported inhibition of Cc1ccccc1C(=O)Nc1sc2c(c1C(=O)NCCO)CCC(C(C)(C)C)C2 (stereo unspecified)
a: -17.9%

q: Form field: reported inhibition of Cc1cc2ncn(Cc3ccc(C(C)C)cc3)c2cc1C
a: 98.3%

====

test: M. tuberculosis growth inhibition, HTS (AID 1259417);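 also: bacteria grown with compound for 5 days at 37 °C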
conditions: M. tuberculosis growth inhibition; stronger effect = higher value; concentration not given here
The campaign covered roughly 1,100 compounds. About 760 (69%) were called active. The set was probably picked from earlier hits. The list shows a part of the results.
property-label: inhibition (%)
Entry rule: numbers only, all in %.

> print(dat)
                         smiles.structure  unit.spec  measured.value
1  CCCn1nnc(NC(=O)COc2ccc(C3CCCCC3)cc2)n1          %            72.9

q: Form field: reported inhibition of O=C(Oc1cccc2cccnc12)c1ccc(Cl)c(S(=O)(=O)N2CCOCC2)c1
a: 101

q: Form field: reported inhibition of Cc1ccc(S(=O)(=O)NC(=O)Oc2cccc3cccnc23)cc1
a: -10.4

q: Form field: reported inhibition of O=C(Oc1ccc(Cl)cc1)c1ccc(N2CCOCC2)c([N+](=O)[O-])c1
a: 24.6

q: Form field: reported inhibition of O=C(Oc1cccc2cccnc12)c1ccc(S(=O)(=O)N2CCCCC2)cc1
a: 100

====

test: M. tuberculosis growth inhibition, HTS (AID 1259417);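 also: bacteria grown with compound for 5 days at 37 °C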
conditions: M. tuberculosis growth inhibition; stronger effect = higher value; concentration not given here
The campaign covered roughly 1,100 compounds. About 760 (69%) were called active. The set was probably picked from earlier hits. This is one part of the list.
Category key, based on recorded inhibition: LOW (below 60%), MEDIUM (60% to below 90%), HIGH (90% or more)

Examples with answers:
> print(dat)
                                   molecule  group.label
1   O=C(Nc1nnc(-c2ccc(Br)cc2)o1)c1ccc(Cl)s1       MEDIUM
2  COC(=O)C(C)Oc1ccc(-c2nccc(-c3cccs3)n2)cc1 (stereo unspecified)       MEDIUM
3  O=C(Nc1nnc(-c2ccc(Br)cc2)o1)c1cc(Cl)sc1Cl          LOW
4    CC1=CC(C)(C)Nc2ccc(OC(=O)c3cccnc3)cc21          LOW
5  CCOC(=O)COc1ccc2c(=O)c(-c3ccc(OC)c(OC)c3)c(C(=O)OCC)oc2c1       MEDIUM

q: Which inhibition band matches CCCCc1cc(=O)oc2cc(OC(C)C(=O)OCC)c(Cl)cc12 (stereo unspecified) ?
a: HIGH

q: Which inhibition band matches COC(=O)CSc1nnc(-c2ccc(OC)cc2OC)o1 ?
a: HIGH

q: Which inhibition band matches CCCc1cc(-c2nc(-c3ccc(Br)cc3)cs2)ccn1 ?
a: HIGH

q: Which inhibition band matches N#Cc1nc(-c2cccs2)oc1NCCc1ccccc1 ?
a: HIGH

q: Which inhibition band matches COC(=O)c1c2c(n3ccc(C)cc13)C(=O)c1ccccc1C2=O ?
a: HIGH

q: Which inhibition band matches CCOC(=O)COc1ccc2c(C)c(CC(=O)OC)c(=O)oc2c1 ?
a: LOW
